The measurements presented in this section are drawn from the supplement of paper PMC6555819.

Tested on: RARb homodimer (NR concentration 270 nM)
Assay: PBM binding z-score (relative to random genomic background probes); higher = stronger binding; sequences stand for … in GC…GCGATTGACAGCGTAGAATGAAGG
Readings of PBM binding z-score for the listed sequences
Reply: number alone, nothing else.

MACROMOLECULE_SEQUENCE	VALUE_REPORTED
ATACCAAGGTGATCGTGAGGTTGTTGATACTAAC	0.567
ATATGTAAGTTACATCCGGGTCATTCAGGCTATG	2.56

For `CCTCGGAGGACAACACGAGGTCAGAGCTGCCAGA` the sequence record lists PBM binding z-score as 3.53

For `CGTCCAGGGTCAATGCTAGGTCAGTGAAAGCATT` the sequence record lists PBM binding z-score as 4.65

For `AGAACGAGGGCACGCTGAGTAGATAGCAGAGTAG` the sequence record lists PBM binding z-score as 0.843

For `TGAATGAGGTAAAAGATCAGGGAACGTGGCGTCG` the sequence record lists PBM binding z-score as -0.605

----------
Test system: PPARg:RXRa 30nM:10nM, anti-RXR (NR concentration 30 nM, RXRa partner concentration 10 nM)
Assay: PBM binding z-score (relative to random genomic background probes); higher = stronger binding; sequences stand for … in GC…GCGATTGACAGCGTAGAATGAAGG
ATTRIBUTE_MEASURED: PBM binding z-score
Reply: number alone, nothing else.

For `CCTACTGGGACATTCAGAGGTCATTGATCATATG` the sequence record lists PBM binding z-score as 0.845

For `CGTCCAAGGTAAAAGGTCAGTGAAGAGATGACGG` the sequence record lists PBM binding z-score as 4.59

For `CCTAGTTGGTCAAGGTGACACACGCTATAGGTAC` the sequence record lists PBM binding z-score as 0.466

----------
Test system: RXRa DBDmut IVT, anti-RXR (DBD mutation: RXRa K156A/R161A, NR concentration 90 nM)
Test: PBM binding z-score (relative to random genomic background probes); higher = stronger binding; sequences stand for … in GC…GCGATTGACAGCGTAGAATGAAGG
Readings of PBM binding z-score for the listed sequences
Reply: number alone, nothing else.

Example results:
MACROMOLECULE_SEQUENCE	VALUE_REPORTED
CCAACTGGGCCAAAGGTCATTGATTCCAATGCTC	1.61
TCTGCTAGGTCAACGATGGCCAGCTAATCTGCTA	0.868
CCTAGAAGGCCAATCTGGGTCACTCAAGGCTTGA	0.567

Query `TCTTGTAGATCAAAGGTTACGAAAGCCGAAGCCT` on RXRa DBDmut IVT, anti-RXR (DBD mutation: RXRa K156A/R161A, NR concentration 90 nM); PBM binding z-score returned: 0.663

Query `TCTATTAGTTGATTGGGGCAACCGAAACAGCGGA` on RXRa DBDmut IVT, anti-RXR (DBD mutation: RXRa K156A/R161A, NR concentration 90 nM); PBM binding z-score returned: 1.34

Query `CTACCAAGGTGAACAAGGTCGTTGACTACTATTC` on RXRa DBDmut IVT, anti-RXR (DBD mutation: RXRa K156A/R161A, NR concentration 90 nM); PBM binding z-score returned: 1.6

Query `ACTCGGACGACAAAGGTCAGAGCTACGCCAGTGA` on RXRa DBDmut IVT, anti-RXR (DBD mutation: RXRa K156A/R161A, NR concentration 90 nM); PBM binding z-score returned: -0.0196

Query `TCTTGTAGGTCAGCAGGTTAAGAAAGCTGGCCAA` on RXRa DBDmut IVT, anti-RXR (DBD mutation: RXRa K156A/R161A, NR concentration 90 nM); PBM binding z-score returned: 0.785

Query `CAACCTAGGTCACAGAGGTCAAAGTCCGTGCGTA` on RXRa DBDmut IVT, anti-RXR (DBD mutation: RXRa K156A/R161A, NR concentration 90 nM); PBM binding z-score returned: 3.68

Query `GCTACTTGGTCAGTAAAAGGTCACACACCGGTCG` on RXRa DBDmut IVT, anti-RXR (DBD mutation: RXRa K156A/R161A, NR concentration 90 nM); PBM binding z-score returned: 0.64

Query `ACTCGGAGGACACAGGTCAGAGCTACGCCAGTGA` on RXRa DBDmut IVT, anti-RXR (DBD mutation: RXRa K156A/R161A, NR concentration 90 nM); PBM binding z-score returned: 0.823

Query `CCTCGGAGGACAGAAGGTCAGAGATGTCCGCTTT` on RXRa DBDmut IVT, anti-RXR (DBD mutation: RXRa K156A/R161A, NR concentration 90 nM); PBM binding z-score returned: -0.0318

Query `CGTCCAAGGTCTGAGAGGTCAGTGAATGCCGAGT` on RXRa DBDmut IVT, anti-RXR (DBD mutation: RXRa K156A/R161A, NR concentration 90 nM); PBM binding z-score returned: 0.83

Query `AGTCAAAGTTCATTAGGTAACGTAAGATTCAGCT` on RXRa DBDmut IVT, anti-RXR (DBD mutation: RXRa K156A/R161A, NR concentration 90 nM); PBM binding z-score returned: 4.97

Query `ATCTCTAGGTAAAGTTTAGTGAAAGATCGATAGA` on RXRa DBDmut IVT, anti-RXR (DBD mutation: RXRa K156A/R161A, NR concentration 90 nM); PBM binding z-score returned: 0.303

Query `TCTGCTAGGTCAACGATGGTCAGATAATCTGCTA` on RXRa DBDmut IVT, anti-RXR (DBD mutation: RXRa K156A/R161A, NR concentration 90 nM); PBM binding z-score returned: 0.978

Query `AATACAGGGTCATCGTAGGCCAGAGCACGCACAG` on RXRa DBDmut IVT, anti-RXR (DBD mutation: RXRa K156A/R161A, NR concentration 90 nM); PBM binding z-score returned: 3.61

Query `ACGAGCAGGCCAAGTTTGGGTCACTCAAACAAAG` on RXRa DBDmut IVT, anti-RXR (DBD mutation: RXRa K156A/R161A, NR concentration 90 nM); PBM binding z-score returned: -0.315
